Quick reference: log10 Kb of the listed items.
# TARGET OF ASSAY: récepteurs β1 de l'oreillette gauche de cobaye (Cavia porcellus, UniProt H0W3H1)
# Construct: l'oreillette gauche de cobaye stimulée électriquement; from tissue; host or cells: guinea pig left atrium, electrically stimulated
# Sequence (H0W3H1 1-470): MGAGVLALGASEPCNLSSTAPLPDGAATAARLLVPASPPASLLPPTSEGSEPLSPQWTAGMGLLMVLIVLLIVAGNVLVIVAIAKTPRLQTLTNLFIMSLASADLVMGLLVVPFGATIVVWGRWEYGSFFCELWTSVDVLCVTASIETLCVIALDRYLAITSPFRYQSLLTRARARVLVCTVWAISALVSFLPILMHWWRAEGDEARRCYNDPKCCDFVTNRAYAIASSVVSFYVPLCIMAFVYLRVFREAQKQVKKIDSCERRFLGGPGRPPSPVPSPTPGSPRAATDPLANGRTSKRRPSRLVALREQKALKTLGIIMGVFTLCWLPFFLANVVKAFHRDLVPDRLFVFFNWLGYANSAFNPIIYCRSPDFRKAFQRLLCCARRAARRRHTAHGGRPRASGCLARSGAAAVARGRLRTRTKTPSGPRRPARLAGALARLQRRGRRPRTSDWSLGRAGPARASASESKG
# PROCEDURE SUMMARY: Antagonism of the positive inotropic effect of isoprenaline on electrically stimulated isolated left atrium
# PARTICULARS: β1; antagonism of isoprenaline, guinea-pig left atrium; read-out: pA2 (converted)
Please be aware that the numbers have been log10-transformed from Kb in nM.

compound="O=c1[nH]c2ccc(C(O)CN3CCN(c4ccc(F)cc4)CC3)cc2o1 (centres unmarked)" recorded_metric="log10 Kb" reported_value=3.60
compound=COc1ccccc1N1CCN(CC(=O)c2ccc3c(c2)oc(=O)n3C)CC1 recorded_metric="log10 Kb" reported_value=3.60
compound="CC(C(=O)c1ccc2c(c1)oc(=O)n2C)N1CCN(c2ccc(F)cc2)CC1 (centres unmarked)" recorded_metric="log10 Kb" reported_value=3.10

log10 Kb reported for this compound COc1ccccc1N1CCN([C@@H](C)[C@H](O)c2ccc3c(c2)oc(=O)n3C)CC1 (relative stereo) : 3.35

log10 Kb reported for this compound Cn1c(=O)oc2cc(C(O)CN3CCC(Cc4ccccc4)CC3)ccc21 (centres unmarked) : 3.30

log10 Kb reported for this compound CC(C)NCC(O)c1ccc2[nH]c(=O)oc2c1 (centres unmarked) : 1.54

log10 Kb reported for this compound CC(C)(C)NCC(O)c1ccc2[nH]c(=O)oc2c1 (centres unmarked) : 2.35

log10 Kb reported for this compound `Cn1c(=O)oc2cc(C(=O)CN3CCC(Cc4ccccc4)CC3)ccc21` : 3.70

====

# TARGET OF ASSAY: récepteurs β1 de l'oreillette gauche de cobaye (Cavia porcellus)
# Construct: l'oreillette gauche de cobaye stimulée électriquement; from tissue; host or cells: guinea pig left atrium, electrically stimulated
# PROCEDURE SUMMARY: Antagonism of the positive inotropic effect of isoprenaline on electrically stimulated isolated left atrium
# PARTICULARS: β1; guinea-pig left atrium
RECORDED METRIC: pD'2

So the reported pD'2 for `COc1ccccc1N1CCN(CC(=O)c2ccc3c(c2)oc(=O)n3C)CC1` , on récepteurs β1 de l'oreillette gauche de cobaye (Cavia porcellus), turned out to be 3,8

====

# TARGET OF ASSAY: récepteurs adrénergiques β2 du muscle trachéal de cobaye (Cavia porcellus)
# Construct: du muscle trachéal de cobaye; from tissue; host or cells: guinea pig tracheal muscle
# Sequence (Q8K4Z4 whole entry): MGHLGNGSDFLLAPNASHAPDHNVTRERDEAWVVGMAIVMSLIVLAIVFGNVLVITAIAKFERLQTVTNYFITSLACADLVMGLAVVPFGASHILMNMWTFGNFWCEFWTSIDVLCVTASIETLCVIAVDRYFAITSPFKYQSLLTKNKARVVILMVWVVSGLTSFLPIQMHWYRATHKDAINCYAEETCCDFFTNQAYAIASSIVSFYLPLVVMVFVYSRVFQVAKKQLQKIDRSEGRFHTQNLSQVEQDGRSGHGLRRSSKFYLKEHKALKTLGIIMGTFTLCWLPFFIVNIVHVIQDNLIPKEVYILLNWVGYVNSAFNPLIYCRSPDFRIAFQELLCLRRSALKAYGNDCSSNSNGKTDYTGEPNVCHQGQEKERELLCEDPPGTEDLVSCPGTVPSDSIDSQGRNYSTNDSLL
# PROCEDURE SUMMARY: Antagonism of the bronchodilator effects of isoprenaline on isolated tracheal muscle
# PARTICULARS: result in words; guinea-pig tracheal muscle
# From the text: L'activité pharmacologique des composés de l'invention a été révélée par recherche d'une interférence avec les récepteurs adrénergiques β1, β2 et α in vitro, conformément aux protocoles expérimentaux ci-après. Récepteurs adrénergiques β2 : on recherche l'antagonisme des effets bronchodilatateurs de l'isoprénaline sur les récepteurs p2 du muscle trachéal de cobaye. […]
RECORDED METRIC: INTERFERENCE AVEC LES RECEPTEURS ADRENERGIQUES β2

Below: 5 compounds and their reported INTERFERENCE AVEC LES RECEPTEURS ADRENERGIQUES β2.
compound="NCC(O)c1ccc2[nH]c(=O)oc2c1 (stereo not shown)" reported_value=Inactif
compound="Cn1c(=O)oc2cc(C(O)CN3CCC(Cc4ccccc4)CC3)ccc21 (stereo not shown)" reported_value=Inactif
compound="COc1ccccc1N1CCN(CC(O)c2ccc3c(c2)oc(=O)n3C)CC1 (stereo not shown)" reported_value="Agoniste partiel"
compound="CC(C(=O)c1ccc2c(c1)oc(=O)n2C)N1CCN(c2ccc(F)cc2)CC1 (stereo not shown)" reported_value="Agoniste partiel"
compound="C[C@@H]([C@H](O)c1ccc2c(c1)oc(=O)n2C)N1CCC(Cc2ccccc2)CC1 (relative stereo)" reported_value="Agoniste partiel"

So the reported INTERFERENCE AVEC LES RECEPTEURS ADRENERGIQUES β2 for C[C@@H]([C@H](O)c1ccc2c(c1)oc(=O)n2C)N1CCN(c2ccc(F)cc2)CC1 (relative stereo) , on récepteurs adrénergiques β2 du muscle trachéal de cobaye (Cavia porcellus), turned out to be Inactif

So the reported INTERFERENCE AVEC LES RECEPTEURS ADRENERGIQUES β2 for O=c1[nH]c2ccc(C(O)CN3CCN(c4ccc(F)cc4)CC3)cc2o1 (stereo not shown) , on récepteurs adrénergiques β2 du muscle trachéal de cobaye (Cavia porcellus), turned out to be Inactif
